- Tested on: 786-0
- protocol_description: NCI tumour cell line growth inhibition, 48 h
Calls of active or inactive are those of the source. Rule as the data show it: active = GI50 up to about 1.1 µM and inactive = higher.
endpoint: GI50

Below: 2 molecules and their reported GI50.
>>> result("N#Cc1c(=O)c2cc([N+](=O)[O-])ccc2n2c1[nH]c1ccccc12")
"6.75 µM (inactive)"
>>> result("Nc1n[n+]([O-])c2ccccc2[n+]1[O-]")
"> 100 µM (inactive)"

Please turn your attention to the following entry.
Field: GI50 (786-0). Entry: CCc1cccc(C(C)C)c1NC(=O)CC1Sc2ccccc2NC1=O (configuration not stated) 80 µM (inactive)

* * *

- System: HOP-62
- protocol_description: NCI tumour cell line growth inhibition, 48 h
Activity calls are given as the source filed them. Rule as the data show it: active = GI50 up to about 1.1 µM and inactive = higher.
endpoint: GI50

# example entries with known answers
>>> result("CNC(=O)CN(CC(=O)NC)C(=O)NC")
"> 100 µM (inactive)"
>>> result("CN(C)c1ccc(/C=C/C(=O)c2cc(C(C)(C)C)c(O)c(C(C)(C)C)c2)cc1")
"2.54 µM (inactive)"
>>> result("O=C(c1ccc(Cl)c(Cl)c1)N(Cc1cccnc1)C(=S)N(Cc1cccnc1)C(=O)c1ccc(Cl)c(Cl)c1")
"27.4 µM (inactive)"
>>> result("O=c1[nH]c2cc(-c3ccccc3)nc-2nn1-c1c(Cl)cc(Cl)cc1Cl")
"25.5 µM (inactive)"

Now for another entry.
Form entry - test system: HOP-62; read-out: GI50; compound: CN/N=C(\C)C(CN1CCCCC1)C(C1=C(O)c2ccccc2OC1)c1ccccc1 (stereo not given) > 100 µM (inactive)

* * *

- Test system: SN12C
- protocol_description: NCI tumour cell line growth inhibition, 48 h
Activity calls are given as the source filed them. No stated cut-off is given here; in the data, active = GI50 up to about 1.1 µM and inactive = higher.
endpoint: GI50

Please review the entries below; each comes with its answer.
>>> result("COC(O)C(=O)c1c2c(cc3c1CCC3)CCC2 (stereo not drawn)")
"> 100 µM (inactive)"
>>> result("Cc1ccc(S(=O)(=O)N/N=C(\\c2nc3ccc(Cl)cc3nc2O)C(O)c2cccc([N+](=O)[O-])c2)cc1 (stereo not drawn)")
"> 100 µM (inactive)"
>>> result("CCCCc1c(C(=O)OC(C)(C)C)cc(C#Cc2cc(C(=O)OC(C)(C)C)c(CCCC)c(C(=O)OC(C)(C)C)c2)cc1C(=O)OC(C)(C)C")
"> 100 µM (inactive)"
>>> result("C=C(C)C1CCC2(CO)C(O)CC3(C)C(CCC4C5(C)CCC(O)C(C)(C)C5CCC43C)C12 (stereo not drawn)")
"16.5 µM (inactive)"
>>> result("CC(=O)O[C@@H]1C(=O)N(c2ccccc2)[C@@H]1c1cc2ccccc2c2ccccc12")
"34.4 µM (inactive)"

Would you mind telling me what GI50 value was observed for C=C(C)CCC(O)[C@](C)(O)[C@H]1[C@H](O)C[C@@]2(C)[C@@H]3CCc4c(cc(OC5OC(CO)C(O)C(O)C5O)c(O)c4C)C3(C)C(=O)C[C@]12C (stereo partly drawn) ? > 100 µM (inactive)

I have this compound here, COc1cc(-c2cc(=O)c3c(O)c(OC)c(OC)c(OC)c3o2)ccc1O , and I need its recorded GI50. 26.7 µM (inactive)

Could you share which GI50 value was measured for Cc1cc(=O)oc2cc(OC(=O)N(CCCl)CCCl)ccc12 ? > 100 µM (inactive)

* * *

- Test system: TK-10
- protocol_description: NCI tumour cell line growth inhibition, 48 h
The source made the active and inactive calls. Cut-off read from the data, not from the text of the source: active = GI50 up to about 1.1 µM and inactive = higher.
Form field: GI50 (one value per entry).

>>> result("COc1c2nc(CCl)[nH]c(=O)c2c(OC)c2nc(CCl)[nH]c(=O)c12")
"> 100 µM (inactive)"
>>> result("O=[N+]([O-])c1ccc(C2c3c(O)nc(S)nc3Oc3nc(S)nc(O)c32)cc1")
"> 100 µM (inactive)"
>>> result("OC(CC1CCCCN1)c1ccc2c(c1)oc1ccccc12 (stereo not given)")
"72.1 µM (inactive)"
>>> result("O[C@@H]1C[C@@H]2N[C@@](O)(C[C@@H]2O)[C@H]1O")
"> 100 µM (inactive)"

Please find the next compound below.
Param readout = GI50; param system = TK-10; param query = O=C1c2ccccc2S(=O)(=O)c2c1cccc2[N+](=O)[O-] ; response: value 5.69 µM (inactive)

* * *

- Test system: SF-295
- protocol_description: NCI tumour cell line growth inhibition, 48 h
Activity calls are given as the source filed them. Rule as the data show it: active = GI50 up to about 1.1 µM and inactive = higher.
endpoint: GI50

>>> result("Cc1cccc(/N=N/c2c(C)nn(C(=O)CC(=O)Nc3ccccc3)c2C)c1")
"> 100 µM (inactive)"
>>> result("COc1ncc(C#CC(=O)c2ccccc2)c(OC)n1")
"16.6 µM (inactive)"
>>> result("CCn1sc2ccccc2c1=O")
"29.1 µM (inactive)"
>>> result("COc1ccc([N+](=O)[O-])c2c(NCCCN(C)C)c(C)c(C)nc12")
"90.8 µM (inactive)"
>>> result("O=C(c1ccccc1)N1N=C(C(F)(F)F)CC1(O)C(F)(F)F (stereo unspecified)")
"> 100 µM (inactive)"

Can you share its GI50? I mean this compound: NC(=O)N/C=C1\C(=O)Oc2ccccc2C1=O 51.8 µM (inactive)

* * *

Reported GI50 is given for each of the following molecules.
- Test system: SF-295
- protocol_description: NCI tumour cell line growth inhibition, 48 h
Activity calls are given as the source filed them. Rule as the data show it: active = GI50 up to about 1.1 µM and inactive = higher.

>>> result("CCCCCCc1cc2cc(C(=O)Nc3ccc(F)cc3)c(=N)oc2cc1O")
"3.96 µM (inactive)"
>>> result("CC(O)C(NC(=O)C(CS)NC(=O)C(CO)NC(=O)C(CCCCN)NC(=O)C(Cc1c[nH]c2ccccc12)NC(=O)C(Cc1ccc(O)cc1)NC(=O)C(CS)NC(=O)C(N)Cc1ccccc1)C(N)=O (centres undefined)")
"> 25 µM (inactive)"
>>> result("CCC(=O)C(CCN1CCC(N2C(=O)C(CCC#N)c3ccccc32)CC1)(c1ccccc1)c1ccccc1 (centres undefined)")
"13.3 µM (inactive)"

From here, focus on the item given below.
Field request: GI50 | item: CCC1=CC2CN3Cn4c(c(COCc5c6n(c7ccccc57)CN5CC7C=C(CC)C5C6(C(=O)OC)C7)c5ccccc54)C(C(=O)OC)(C2)C13 > 100 µM (inactive)

* * *

Reported GI50 values are given for each entry in this list.
- Tested on: CAKI-1
- protocol_description: NCI tumour cell line growth inhibition, 48 h
Active and inactive are the calls of the source. Cut-off read from the data, not from the text of the source: active = GI50 up to about 1.1 µM and inactive = higher.

Sample records with GI50:
>>> result("COc1ccc(Nc2nc3cc(C(F)(F)F)ccc3n3cccc23)cc1OC")
"27.9 µM (inactive)"
>>> result("O=C1CCCCCCCCCCC1CCCCCBr (stereo not given)")
"31.2 µM (inactive)"
>>> result("CCN(CC)Cc1cc(Nc2ccnc3ccc4c(nnn4C)c23)ccc1O")
"13.5 µM (inactive)"

From here, focus on the item given below.
GI50 lookup needed for COc1cc(Cn2c(=S)ss/c2=N\C(=S)N(C)C)cc(OC)c1OC , thanks. 4.57 µM (inactive)

* * *

- System: MCF7
- protocol_description: NCI tumour cell line growth inhibition, 48 h
Activity calls are given as the source filed them. No stated cut-off is given here; in the data, active = GI50 up to about 1.1 µM and inactive = higher. Where a SMILES comes first, the peptide text is derived from it. Bridges are numbered along the chain shown (N, C = ends). The star is where a group is joined. Cbz = O=C(OCc1ccccc1)*
The reply should name one outcome from T (active), F (inactive)

>>> classification("O=S(=O)(O)c1cc(/N=[N+](\\[O-])c2ccc(/N=N/c3ccccc3)cc2S(=O)(=O)O)ccc1/C=C/c1ccc(/N=[N+](\\[O-])c2ccc(/N=N/c3ccccc3)cc2S(=O)(=O)O)cc1S(=O)(=O)O")
"F"
>>> classification("O=C(CC(O)(C(F)(F)F)C(F)(F)F)C(CCCl)C(O)(C(F)(F)F)C(F)(F)F (centres undefined)")
"F"
>>> classification("COP(=O)(OC)OCN(C)CC/C=C(\\C)CC/C=C(\\C)CCC=C(C)C")
"F"
>>> classification("Cc1ccc(C2(N3CCOCC3)OC(C)(C)c3cccc4cccc2c34)cc1 (centres undefined)")
"F"
>>> classification("CCO[C@]12CCC[C@H]1[C@@H]1C(=O)c3ccccc3C(=O)C1=C(C)O2")
"F"
>>> classification("O=[N+]([O-])c1ccc(C2c3c(O)nc(S)nc3Oc3nc(S)nc(O)c32)cc1")
"F"
>>> classification("COc1cccc2c1C(=O)c1c(O)c3c(c(O)c1C2=O)CC(O)(C(O)CO)CC3OC1CC2C(OC3COCC(C#N)N32)C(C)O1 (centres undefined)")
"T"
>>> classification("O=C(O)/C=c1/c2ccccc2n2nc3ccccc3c12")
"F"
>>> classification("Nc1nc(Cl)cc(NCC2(CO)CCC(O)C2)n1 (centres undefined)")
"F"
>>> classification("O=C1CC(c2ccco2)C2(C(=O)NC(=O)NC2=O)C(c2ccco2)C1 (centres undefined)")
"F"

Field: outcome | Entry: COC(=O)C1CCCCNC(=O)CCC(NC(=O)OCc2ccccc2)C(=O)N1 (stereo not drawn) (Cbz-Glu-Lys-OMe; lactam 1-2; configuration not given here) F

Write down the call the test reported for this compound. Item: Cc1ccccc1NC(=O)/C(C#N)=N\Nc1[nH]cnc1C(N)=O F

Which outcome did this test record for the compound CCOC(=O)C(=CNC(=S)N/N=C1\C(=O)Nc2ccccc21)C(=O)OCC ? F

What call does the record list for CCC(=O)C(CCN1CCC(N2C(=O)C(CCC#N)c3ccccc32)CC1)(c1ccccc1)c1ccccc1 (centres undefined) ? F

I'd appreciate the recorded outcome for CCOC(=O)C1(C(=O)OCC)CCC(C(OC)OC)C(CC(=O)OC)C1 (centres undefined) from this test. F

Any idea what this test logged for COC1/C=C\OC2(C)Oc3c(C)c(O)c4c(O)c(c(CN(C)C)c(O)c4c3C2=O)NC(=O)/C(C)=C\C=C/C(C)C(O)C(C)C(O)C(C)C(OC(C)=O)C1C (centres undefined) ? F

Assay result, entry S=C(NN=C1NCCCCN1)Nc1ccc(Cl)cc1 — outcome? F

I'd appreciate the recorded outcome for O=C(c1ccccc1)N1N=C(C(F)(F)F)CC1(O)C(F)(F)F (centres undefined) from this test. F

For O=C(Nc1sccc1S(=O)(=O)c1ccc(Cl)cc1)c1ccc(F)cc1F , what call appears in the results of this test? F
